# ASSAYED TARGET: BCL-XL (Homo sapiens)
# Construct: endogenous in cells; host or cells: MOLT-4
# Sequence (Q07817 whole entry): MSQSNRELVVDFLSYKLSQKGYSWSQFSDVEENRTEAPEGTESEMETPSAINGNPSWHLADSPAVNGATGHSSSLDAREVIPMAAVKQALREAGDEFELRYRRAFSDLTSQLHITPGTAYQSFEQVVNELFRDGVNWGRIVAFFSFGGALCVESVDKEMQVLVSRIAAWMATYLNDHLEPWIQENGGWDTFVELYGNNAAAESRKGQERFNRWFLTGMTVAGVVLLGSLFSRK
# EXPERIMENT SUMMARY: Bcl-xL ELISA degradation in MOLT-4 cells, 6 h
# Format: cell-based
# TEST CONTEXT: read-out: Bcl-xL ELISA in MOLT-4 degradation 6 h: Mean external-Abs DC50
REPORTED PROPERTY: DC50

Field: example entries. Status: answers known.
[[record]]
molecule = "Cc1cc(N(C)c2ccc(-c3cnn(CC45CC6CC(CC(C6)C4)C5)c3C)c(C(=O)NS(=O)(=O)c3ccc(N4CC(C(=O)N[C@H](C(=O)N5C[C@H](O)C[C@H]5C(=O)N[C@@H](C)c5ccc(-c6scnc6C)cc5)C(C)(C)C)C4)cc3)n2)nnc1Nc1nc2ccccc2s1 [I-434]"
assayed_target = "BCL-XL (Homo sapiens)"
reported_property = "DC50"
recorded_value = "10 to 100 nM"

[[record]]
molecule = "Cc1ncsc1-c1ccc([C@H](C)NC(=O)[C@@H]2C[C@@H](O)CN2C(=O)[C@@H](NC(=O)C2CCN(c3ccc(S(=O)(=O)NC(=O)c4nc(N5CCc6cccc(C(=O)Nc7nc8ccccc8s7)c6C5)ccc4-c4cccc5c4cnn5C(C)C)cc3)CC2)C(C)(C)C)cc1 [I-297]"
assayed_target = "BCL-XL (Homo sapiens)"
reported_property = "DC50"
recorded_value = "500 to 1000 nM"

[[record]]
molecule = "Cc1ncsc1-c1ccc([C@H](C)NC(=O)[C@@H]2C[C@@H](O)CN2C(=O)[C@@H](NC(=O)CCCCCCNC(=O)c2nc(N3CCc4cccc(C(=O)Nc5nc6ccccc6s5)c4C3)ccc2-c2cnn(CC3CCCCC3)c2C)C(C)(C)C)cc1 [I-96]"
assayed_target = "BCL-XL (Homo sapiens)"
reported_property = "DC50"
recorded_value = "10 to 100 nM"

[[record]]
molecule = "C#Cc1ccc(CNC(=O)[C@@H]2C[C@@H](O)CN2C(=O)[C@@H](NC(=O)C2CN(CCS(=O)(=O)NC(=O)c3nc(N(C)c4cc(C)c(Nc5nc6ccccc6s5)nn4)ccc3-c3cnn(CC45CC6CC(CC(C6)C4)C5)c3C)C2)C(C)(C)C)cc1 [I-433]"
assayed_target = "BCL-XL (Homo sapiens)"
reported_property = "DC50"
recorded_value = "100 to 500 nM"

[[record]]
molecule = "Cc1ncsc1-c1ccc([C@H](C)NC(=O)[C@@H]2C[C@@H](O)CN2C(=O)[C@@H](NC(=O)C2CCN(CCCS(=O)(=O)NC(=O)c3nc(N4CCc5cccc(C(=O)Nc6nc7ccccc7s6)c5C4)ccc3-c3cnn(CC4CCCCC4)c3C)CC2)C(C)(C)C)cc1 [I-381]"
assayed_target = "BCL-XL (Homo sapiens)"
reported_property = "DC50"
recorded_value = "10 to 100 nM"

[[record]]
molecule = "Cc1ncsc1-c1ccc([C@H](C)NC(=O)[C@@H]2C[C@@H](O)CN2C(=O)[C@@H](NC(=O)C2CCN(c3ccc(S(=O)(=O)NC(=O)c4nc(N5CCc6cccc(C(=O)Nc7nc8ccccc8s7)c6C5)ccc4-c4cnn(CC5CCCCC5)c4C)cc3CC(=O)O)CC2)C(C)(C)C)cc1 [I-296]"
assayed_target = "BCL-XL (Homo sapiens)"
reported_property = "DC50"
recorded_value = "100 to 500 nM"

[[record]]
molecule = "Cc1c(-c2ccc(N3CCc4cccc(C(=O)Nc5nc6ccccc6s5)c4C3)nc2C(=O)NS(=O)(=O)CCCCCc2ccc3c(c2)n(C)c(=O)n3C2CCC(=O)NC2=O)cnn1CC1CCCCC1 (centres unmarked) [I-425]"
assayed_target = "BCL-XL (Homo sapiens)"
reported_property = "DC50"
recorded_value = "< 10 nM"


Please turn your attention to the following entry.
Prompt: Recall the reported DC50 of Cc1ncsc1-c1ccc([C@H](C)NC(=O)[C@@H]2C[C@@H](O)CN2C(=O)[C@@H](NC(=O)C#CC2CCN(S(=O)(=O)NC(=O)c3nc(N4CCc5cccc(C(=O)Nc6nc7ccccc7s6)c5C4)ccc3-c3cnn(CC4CCCCC4)c3C)CC2)C(C)(C)C)cc1 [I-420] when tested on BCL-XL (Homo sapiens).
Response: 10 to 100 nM
